molecular target: His-tagged human BCMA (ACRO Biosystems, Cat. #: BCA-H522y) (human); test: SPR (BIAcore T200) affinity ranking; crude sdAb captured via tag, antigen at 100 nM
Sequence (Q02223 1-54): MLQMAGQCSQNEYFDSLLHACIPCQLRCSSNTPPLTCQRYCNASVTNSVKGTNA
measured parameter: kon (M⁻¹ s⁻¹)
The response must be a number in M⁻¹ s⁻¹ with no trailing unit.

Use these answered entries as a reference point.
binder | kon / M⁻¹ s⁻¹
anti-BCMA sdAb BCMA8 (VHH, part only, affinity tag) VHH: QVQLVESGGGSVQAGGSLRLSCAASGGTRSWNYMAWFRQAPGKEREDVAIIDNVGSTRYADSVKGRFTISQDTAQNTLYLQMNSLKPEDTAMYYCAARVSWCEDPPCGFDYWGQGTQVTVSS | 7.8e+06
anti-BCMA sdAb BCMA6 (VHH, part only, affinity tag) VHH: QMQLVESGGGSVQAGGSLRLSCTASGYTFDDSAMGWYRQAPGNECELVSSISSDGSTYYSDSVKGRFTISQDNAKNTMYLQMNSLKPEDTAVYSCAASSGEDGGSWSTPCHFFGYWGQGTQVTVSS | 5.4e+06
anti-BCMA sdAb BCMA1 (VHH, part only, affinity tag) VHH: QVQLVESGGGSVQAGGSLRLSCKASGAIYDTNCMAWFRQTPGKEREGVATIDLGNPITYYADSVKGRFTISRDNAKNTMYLQMNSLEPEDTAMYYCAATSWWPCTTFNAGYANWGQGTQVTVSS | 2.9e+07
anti-BCMA sdAb BCMA9 (VHH, part only, affinity tag) VHH: QVQLVESGGGSVQAGGSLRLSCKSSGAPYSSNCMAWFRQTPGKGREGVATIDLASHDTYYADSVKGRFTISRDNAKNTMYLQMNSLKPEDTAMYYCAATSWWPCTTFNGGYANWGQGTQVTVSS | 5e+07
anti-BCMA sdAb BCMA7 (VHH, part only, affinity tag) VHH: QVHLMESGGGSVQSGGSLRLSCAASGYTYSSYCMAWFRQAPGKEREGVAAIASDGSTYYTDSVKGRFTISQDNAKNTLYLQMNSLKPEDTAMYYCGADPVGCSWPDYWGQGTQVTVSS | 2.3e+06

According to the records, this binder anti-BCMA sdAb BCMA11 (VHH, part only, affinity tag) VHH: QVQLVESGGGVVQPGGSLRLSCAASGFAFSNYAMTWGRQAPGQRLEWVSTIDSGGGSTTYSDSVKGRFTISRDNAKNTLYLQLNNLKSEDTAVYYCSENVDCNGDYCYRANYWGQGTQVTVSS displays kon of 170000

According to the records, this binder anti-BCMA sdAb BCMA12 (VHH, part only, affinity tag) VHH: QVHLVESGGGSVQAGGSLRLSCKSSGATYSSNCMAWFRQTPGKEREGVATIDLASHGTYYADSVKGRFTISRDNAKNTMYLQMSGLRPEDTALYYCAATSWWPCTTFNGGYASWGQGTQVTVSS displays kon of 1.1e+06

According to the records, this binder anti-BCMA sdAb BCMA10 (VHH, part only, affinity tag) VHH: QVQLAESGGGLVQPGGSLRLSCAGSGFTFSSYDMNWVRQAPGKGLERVSTTFNGDDGTNYADSVLGRFTASRDKAKNTLYLQMNSLKTEDTAVYYCAAAVPGVDWYDTTRYKYWGQGTQVTVSS displays kon of 2.8e+06

According to the records, this binder anti-BCMA sdAb BCMA13 (VHH, part only, affinity tag) VHH: QVHLVESGGGSVQAGGSLRLSCKASGAIYDTNCMAWFRQTPGKEREGVATIDLGNPITYYADSVKGRFTISRDNAKNTMYLQMNSLKPEDTAMYYCAATSWWPCPANNVGYANWGQGTQVTVSS displays kon of 690000

Data credit: patent US20220265709A1
